Kc(HBen-β-CD), apparent binding constant in guest molecule/CD derivative complex overview
Description: The suspensions were stirred for 24 hours at 25° C. The undissolved residues were removed by filtration through a […] filter. The solutions were diluted with a 1:1 water/ethanol mixture and concentrations of the guest molecules were determined spectrophotometrically using an HP 8542 diode array spectrophotometer. […] The apparent binding constants were calculated from the slope of the solubility isotherm. […]
test.readout: Kc(HBen-β-CD), apparent binding constant in guest molecule/CD derivative complex (M⁻¹)

compound	test.result
O=C(O)c1ccccc1O	183
CC(C)Cc1ccc(C(C)C(=O)O)cc1 (stereo not shown)	520
COc1ccc(Cl)cc1C(=O)NCCc1ccc(S(=O)(=O)NC(=O)NC2CCCCC2)cc1 [Glibenclamide, glibenclamide]	136
Cc1ccccc1	1111

meta.source: patent US6479467B1
